From: patent US5051403A

Parameter: pKi. Scope: all listed entries.
tgt: UniProtKB P56698
measurement.notes: biochemical
Design: species or system Ommata dyscopyge (marine electric ray)
condition.context: pKi
pKi: −log10 of the molar value. Bridge positions count the residues as written; N and C are the ends. Square brackets hold non-standard residues; d marks the D form. Peptide text beside a SMILES is read from it. Hyp = O=C(O)[C@@H]1C[C@@H](O)CN1
value.type: pKi

molecule	recorded.number
CSCC[C@@H]1NC(=O)[C@H](CC(C)C)NC(=O)[C@H](CCCNC(=N)N)NC(=O)[C@H](CO)NC(=O)[C@H](CSCNC(C)=O)NC(=O)[C@H](CCCCN)NC(=O)[C@H](C)NC(=O)CNC(=O)[C@H](CCCCN)NC(=O)CNC(=O)[C@H](CCCCN)NC(=O)[C@@H](N)CSSC[C@@H](C(N)=O)NC(=O)[C@H](CSCNC(C)=O)NC(=O)[C@H](CC(=O)O)NC(=O)[C@H](Cc2ccc(O)cc2)NC1=O	3.66
C[C@@H]1NC(=O)[C@H](C)NC(=O)[C@H](CCCCN)NC(=O)[C@H](CO)NC(=O)CNC(=O)[C@H](CCCCN)NC(=O)[C@H](CO)NC(=O)[C@H](CCCCN)NC(=O)[C@@H](N)CSSC[C@@H](C(N)=O)NC(=O)[C@H](CCCCN)NC(=O)CNC(=O)[C@H](CO)NC(=O)[C@H](CCCNC(=N)N)NC1=O [MVIIA 176] (H-CKSKGSKAARSGKC-NH2; disulfide 1-14)	5.74
C[C@@H]1NC(=O)[C@H](C)NC(=O)[C@H](CO)NC(=O)[C@H](CO)NC(=O)CNC(=O)[C@@H]2C[C@@H](O)CN2C(=O)[C@H](CO)NC(=O)[C@H](CCCCN)NC(=O)[C@@H](N)CSSC[C@@H](C(=O)N[C@@H](Cc2ccc(O)cc2)C(N)=O)NC(=O)[C@H](CCCNC(=N)N)NC(=O)[C@H](CCCCN)NC(=O)[C@H]([C@@H](C)O)NC(=O)[C@H](Cc2ccc(O)cc2)NC(=O)[C@@H]2C[C@@H](O)CN2C(=O)[C@H](CC(N)=O)NC1=O [GVIA 180] (H-CKS[Hyp]GSSAAN[Hyp]YTKRCY-NH2; disulfide 1-16)	3.91
CSCC[C@@H]1NC(=O)[C@H](CC(C)C)NC(=O)[C@H](CCCNC(=N)N)NC(=O)[C@H](CO)NC(=O)[C@@H]2CSSC[C@H](NC(=O)[C@H](CC(=O)O)NC(=O)[C@H](Cc3ccc(O)cc3)NC1=O)C(=O)N[C@H](C(N)=O)CSSC[C@H](N)C(=O)N[C@@H](CCCCN)C(=O)NCC(=O)N[C@@H](CCCCN)C(=O)NCC(=O)N[C@@H](C)C(=O)N[C@@H](CCCCN)C(=O)N2	4.68

====

tgt: OCT binding sites, elasmobranch electric organ synaptosomes (Diplobatis ommata, UniProt P56698)
Sequence (P56698 whole entry, looked up): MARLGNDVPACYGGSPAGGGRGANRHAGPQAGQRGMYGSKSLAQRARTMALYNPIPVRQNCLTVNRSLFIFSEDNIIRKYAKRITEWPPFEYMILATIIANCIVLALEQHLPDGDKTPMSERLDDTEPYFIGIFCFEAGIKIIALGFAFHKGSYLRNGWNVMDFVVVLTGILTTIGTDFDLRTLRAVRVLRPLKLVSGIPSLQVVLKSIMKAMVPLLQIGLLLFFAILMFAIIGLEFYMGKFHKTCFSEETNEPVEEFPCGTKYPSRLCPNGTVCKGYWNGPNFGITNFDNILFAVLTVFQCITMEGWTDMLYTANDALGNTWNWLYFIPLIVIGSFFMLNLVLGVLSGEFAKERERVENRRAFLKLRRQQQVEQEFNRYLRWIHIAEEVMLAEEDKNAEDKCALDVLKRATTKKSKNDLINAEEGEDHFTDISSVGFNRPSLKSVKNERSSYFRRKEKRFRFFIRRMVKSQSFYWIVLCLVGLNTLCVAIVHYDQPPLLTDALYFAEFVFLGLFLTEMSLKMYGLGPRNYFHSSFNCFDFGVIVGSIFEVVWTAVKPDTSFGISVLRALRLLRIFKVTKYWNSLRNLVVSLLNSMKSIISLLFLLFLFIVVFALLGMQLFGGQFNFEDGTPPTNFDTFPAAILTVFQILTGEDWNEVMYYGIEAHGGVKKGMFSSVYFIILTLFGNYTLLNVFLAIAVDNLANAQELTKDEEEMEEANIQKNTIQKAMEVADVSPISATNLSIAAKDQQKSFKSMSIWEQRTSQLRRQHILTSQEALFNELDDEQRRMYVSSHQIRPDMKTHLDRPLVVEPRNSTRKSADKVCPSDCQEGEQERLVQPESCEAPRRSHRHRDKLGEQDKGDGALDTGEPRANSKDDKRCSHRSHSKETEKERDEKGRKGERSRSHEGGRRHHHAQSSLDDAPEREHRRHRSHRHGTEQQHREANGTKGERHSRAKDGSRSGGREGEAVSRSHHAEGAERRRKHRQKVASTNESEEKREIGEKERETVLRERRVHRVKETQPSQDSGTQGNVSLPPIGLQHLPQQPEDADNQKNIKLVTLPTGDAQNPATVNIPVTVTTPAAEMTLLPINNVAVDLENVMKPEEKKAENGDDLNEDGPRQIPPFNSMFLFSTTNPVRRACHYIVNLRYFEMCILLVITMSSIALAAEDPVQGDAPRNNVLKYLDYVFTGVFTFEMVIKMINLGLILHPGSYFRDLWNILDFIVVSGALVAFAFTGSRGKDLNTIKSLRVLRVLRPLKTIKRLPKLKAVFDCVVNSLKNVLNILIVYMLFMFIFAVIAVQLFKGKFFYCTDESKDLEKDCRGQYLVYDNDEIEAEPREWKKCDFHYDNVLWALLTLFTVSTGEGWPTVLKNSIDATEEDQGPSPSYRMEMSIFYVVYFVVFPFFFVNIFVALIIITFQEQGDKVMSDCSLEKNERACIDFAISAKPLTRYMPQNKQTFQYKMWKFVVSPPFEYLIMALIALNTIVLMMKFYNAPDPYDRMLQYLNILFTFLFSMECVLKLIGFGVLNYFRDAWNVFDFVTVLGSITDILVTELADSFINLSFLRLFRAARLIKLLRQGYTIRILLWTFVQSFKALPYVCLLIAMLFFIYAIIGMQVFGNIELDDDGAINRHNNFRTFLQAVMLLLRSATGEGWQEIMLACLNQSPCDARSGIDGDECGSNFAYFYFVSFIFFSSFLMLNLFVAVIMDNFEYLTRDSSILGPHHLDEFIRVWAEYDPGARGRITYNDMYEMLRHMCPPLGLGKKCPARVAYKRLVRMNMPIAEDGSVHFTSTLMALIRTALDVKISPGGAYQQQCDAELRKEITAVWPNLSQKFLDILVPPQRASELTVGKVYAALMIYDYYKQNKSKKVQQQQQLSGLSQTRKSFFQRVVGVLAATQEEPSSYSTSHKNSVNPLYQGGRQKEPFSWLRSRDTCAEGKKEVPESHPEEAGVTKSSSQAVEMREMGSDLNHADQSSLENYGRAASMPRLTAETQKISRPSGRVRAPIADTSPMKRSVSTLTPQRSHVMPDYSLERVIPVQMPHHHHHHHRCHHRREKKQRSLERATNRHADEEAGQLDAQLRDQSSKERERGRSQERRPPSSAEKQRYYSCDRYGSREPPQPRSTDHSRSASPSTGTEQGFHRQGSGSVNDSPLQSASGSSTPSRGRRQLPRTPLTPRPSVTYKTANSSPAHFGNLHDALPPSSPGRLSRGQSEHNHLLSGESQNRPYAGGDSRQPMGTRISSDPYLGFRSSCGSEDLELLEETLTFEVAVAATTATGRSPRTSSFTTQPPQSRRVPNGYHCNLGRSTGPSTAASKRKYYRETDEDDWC
measurement.notes: biochemical
Design: species or system Ommata dyscopyge (marine electric ray)
condition.context: pKi
pKi: −log10 of the molar value. Bridge positions count the residues as written; N and C are the ends. Peptide text beside a SMILES is read from it.
Parameter: pKi. Scope: all listed entries.

compound	pKi
CC(=O)NCSC[C@@H]1NC(=O)[C@H](CO)NC(=O)CNC(=O)[C@H]([C@@H](C)O)NC(=O)[C@H](CSCNC(C)=O)NC(=O)[C@@H](N)CSSC[C@@H](C(N)=O)NC(=O)[C@H](CCCCN)NC(=O)CNC(=O)[C@H](CO)NC(=O)[C@H](CCCNC(=N)N)NC1=O	3.92
C[C@@H]1NC(=O)CNC(=O)[C@H](CCCCN)NC(=O)CNC(=O)[C@H](CCCCN)NC(=O)[C@@H](N)CSSC[C@@H](C(N)=O)NC(=O)[C@H](CCCCN)NC(=O)CNC(=O)[C@H](CO)NC(=O)[C@H](CCCNC(=N)N)NC(=O)[C@H](C)NC(=O)[C@H](C)NC(=O)[C@H](CCCCN)NC1=O [MVIIA 175] (H-CKGKGAKAARSGKC-NH2; disulfide 1-14)	5.44
CSCC[C@@H]1NC(=O)[C@H](CC(C)C)NC(=O)[C@H](CCCNC(=N)N)NC(=O)[C@H](CO)NC(=O)[C@H](C)NC(=O)[C@H](CCCCN)NC(=O)[C@H](C)NC(=O)CNC(=O)[C@H](CCCCN)NC(=O)CNC(=O)[C@H](CCCCN)NC(=O)[C@@H](N)CSSC[C@@H](C(N)=O)NC(=O)[C@H](C)NC(=O)[C@H](CC(=O)O)NC(=O)[C@H](Cc2ccc(O)cc2)NC1=O [MVIIA 171] (H-CKGKGAKASRLMYDAC-NH2; disulfide 1-16)	5.33
